# study.system: B1-AR (Homo sapiens, UniProt P08588)
# Construct: expressed in transfected cells; host or cells: CHO-K1
# Sequence (P08588 whole entry, species assumed): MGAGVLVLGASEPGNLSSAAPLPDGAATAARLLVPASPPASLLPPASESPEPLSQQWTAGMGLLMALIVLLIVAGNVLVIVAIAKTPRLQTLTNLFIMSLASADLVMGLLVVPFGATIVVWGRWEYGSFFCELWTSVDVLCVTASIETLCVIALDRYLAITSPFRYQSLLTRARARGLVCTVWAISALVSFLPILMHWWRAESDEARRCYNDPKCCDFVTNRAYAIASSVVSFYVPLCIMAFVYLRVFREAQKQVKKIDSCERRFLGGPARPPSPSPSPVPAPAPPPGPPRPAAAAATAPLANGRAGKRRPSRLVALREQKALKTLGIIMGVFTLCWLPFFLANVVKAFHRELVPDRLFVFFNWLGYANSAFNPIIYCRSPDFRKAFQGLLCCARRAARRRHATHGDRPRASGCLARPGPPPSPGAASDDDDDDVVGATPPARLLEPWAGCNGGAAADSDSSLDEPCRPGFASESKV
# test.protocol: cAMP Gs dynamic HTRF assay, cells expressing beta-adrenergic receptor (CHO-K1), B1-AR
# Assay type: cell-based
# experimental.context: cAMP HTRF, read-out: pEC50 [B1-AR] (converted)
measurement.type: EC50

Input: Please look up its EC50: CC(C)NC[C@H](O)c1cccc2[nH]nc(Cl)c12 [I-101]
Output: < 10 nM

Input: Repeat with CC(C)C(C)(C)NC[C@H](O)c1cccc2[nH]ncc12 [I-29]
Output: 10 to 100 nM

Input: Repeat with CCc1cc([C@@H](O)CNC(C)(C)C)c2cn[nH]c2c1 [I-105]
Output: > 1000 nM

Input: Repeat with CC(C)(C)NC[C@H](O)c1cccc2[nH]c(=O)[nH]c12 [I-94]
Output: 100 to 1000 nM

Input: Repeat with CC1(NC[C@H](O)c2cc(C#N)cc3[nH]ncc23)CC1 [I-155]
Output: 100 to 1000 nM

* * *

# study.system: B2-AR (Homo sapiens, UniProt P07550)
# Construct: expressed in transfected cells; host or cells: CHO-K1
# Sequence (P07550 whole entry, species assumed): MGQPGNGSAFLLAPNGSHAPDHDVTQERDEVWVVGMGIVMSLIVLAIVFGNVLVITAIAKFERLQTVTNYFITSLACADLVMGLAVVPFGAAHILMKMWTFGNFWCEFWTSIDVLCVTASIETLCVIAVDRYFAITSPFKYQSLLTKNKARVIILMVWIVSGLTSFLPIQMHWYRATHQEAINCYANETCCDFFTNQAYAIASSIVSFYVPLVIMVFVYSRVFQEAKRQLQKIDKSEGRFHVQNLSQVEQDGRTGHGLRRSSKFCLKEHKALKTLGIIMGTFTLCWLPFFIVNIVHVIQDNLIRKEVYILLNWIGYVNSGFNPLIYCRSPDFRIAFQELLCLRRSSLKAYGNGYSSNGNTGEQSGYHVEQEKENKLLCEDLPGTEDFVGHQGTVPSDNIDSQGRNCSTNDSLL
# test.protocol: cAMP Gs dynamic HTRF assay, cells expressing beta-adrenergic receptor (CHO-K1), B2-AR
# Format: cell-based
# experimental.context: CHO-K1 cells, cAMP HTRF; read-out: pEC50 [B2-AR] (converted)
I'd be grateful if you could share measured EC50 for these entries.

Input: GET /values?readout=EC50&system=B2-AR (Homo sapiens, UniProt P07550)&item= CC1(NC[C@H](O)c2cc(C#N)cc3[nH]ncc23)CC1 [I-155]
Output: 10 to 100 nM

Input: Repeat with Cc1nc(N)c(Cl)cc1[C@H](CO)NC1CC(F)(F)C1 [I-185]
Output: > 1000 nM

Input: Repeat with Cc1n[nH]c2cccc([C@@H](O)CNC3(C)CCC3)c12 [I-168]
Output: < 10 nM

Input: Repeat with Cn1ccc(CNC[C@H](O)c2cccc3[nH]nc(F)c23)n1 [I-78]
Output: 100 to 1000 nM

Input: Repeat with C[C@H](NC[C@H](O)c1cccc2[nH]ncc12)C(C)(C)C [I-6]
Output: < 10 nM

Input: Repeat with C[C@@H](NC[C@H](O)c1ccc(F)c2[nH]ncc12)C1CC1 [I-10]
Output: < 10 nM

Input: Repeat with CC(C)CNC[C@H](O)c1cccc2[nH]nc(Cl)c12 [I-99]
Output: 10 to 100 nM

Input: Repeat with O[C@@H](CNC1CCC1)c1ccc(F)c2[nH]ncc12 [I-137]
Output: < 10 nM

Input: Repeat with CC(C)(C)NC[C@H](O)c1cccc2c(F)n[nH]c12 [I-85]
Output: 100 to 1000 nM

Input: Repeat with COc1ccc(C[C@@H](C)NC[C@H](O)c2cc(F)cc3[nH]ncc23)cc1 [I-15]
Output: < 10 nM

* * *

# study.system: B2-AR (Homo sapiens)
# Construct: expressed in transfected cells; host or cells: CHO-K1
# test.protocol: cAMP Gs dynamic HTRF assay, cells expressing beta-adrenergic receptor (CHO-K1), B2-AR
# Type: cell-based
# experimental.context: CHO-K1 cells, relative to full agonist isoproterenol; read-out: Emax (% iso) (%) [B2-AR]
I'd be grateful if you could share measured Emax for these entries.

Input: Please look up its Emax: `O[C@@H](CNC1CCC1)c1ccc(Cl)c2[nH]ncc12`
Output: 70 to 90%

Input: Repeat with `Cc1n[nH]c2cccc([C@@H](O)CNC3CCC3)c12`
Output: 70 to 90%

Input: Repeat with `CC1(N[C@H](CO)c2cncc3[nH]ncc23)CC1`
Output: 70 to 90%

Input: Repeat with `CC(C)(C)NC[C@H](O)c1cccc2[nH]nc(C(F)F)c12`
Output: 70 to 90%

Input: Repeat with `CC(C)(NC[C@H](O)c1cc(C#N)cc2[nH]ncc12)C1CC1`
Output: > 90%

Input: Repeat with `Cc1n[nH]c2cccc([C@@H](O)CNC3(C)CC3)c12`
Output: 70 to 90%

Input: Repeat with `CC1(NC[C@H](O)c2cccc3[nH]nc(F)c23)CCC1`
Output: > 90%

Input: Repeat with `Cn1c(=O)[nH]c2cccc([C@@H](O)CNC(C)(C)C)c21`
Output: > 90%

Input: Repeat with `COc1ccc(C[C@@H](C)NC[C@H](O)c2cc(F)cc3[nH]ncc23)cc1`
Output: > 90%

Input: Repeat with `CC(C)NC[C@H](O)c1cc(C#N)cc2[nH]ncc12`
Output: > 90%

Input: Repeat with `CC1(NC[C@H](O)c2cccc3[nH]nc(Cl)c23)CCC1`
Output: > 90%

Input: Repeat with `Cc1c(F)cc([C@@H](O)CNC(C)(C)C)c2cn[nH]c12`
Output: 70 to 90%

Input: Repeat with `Cc1n[nH]c2cccc([C@@H](O)CNCC(C)C)c12`
Output: 50 to 70%

Input: Repeat with `Cc1cc2ncccc2cc1[C@@H](O)CNC(C)(C)C`
Output: < 50%

Input: Repeat with `CNc1ncc([C@@H](O)CNC(C)(C)C)cn1`
Output: 50 to 70%

Input: Repeat with `CC(C)CNC[C@H](O)c1cccc2[nH]nc(F)c12`
Output: > 90%

Input: Repeat with `O[C@@H](CNC1CCC1)c1cccc2[nH]nc(Cl)c12`
Output: > 90%

Input: Repeat with `CC1(NC[C@H](O)c2cccc3[nH]ncc23)CC1`
Output: > 90%

Input: Repeat with `Cc1nc(N)c(Cl)cc1[C@@H](O)CNC1COC1`
Output: > 90%

Input: Repeat with `CCC(C)(CC)NC[C@H](O)c1cccc2[nH]ncc12`
Output: > 90%

Input: Repeat with `COc1ccc(C[C@@H](C)NC[C@H](O)c2cccc3[nH]nc(F)c23)cc1`
Output: > 90%

Input: Repeat with `CC(C)NC[C@H](O)c1cncc2[nH]ncc12`
Output: > 90%

Input: Repeat with `Cc1nc(N)c(Cl)cc1[C@@H](CO)NC1CC(F)(F)C1`
Output: < 50%

Input: Repeat with `CC(C)(C)NC[C@H](O)c1cccc2[nH]c(=O)[nH]c12`
Output: 70 to 90%

Input: Repeat with `Cc1cc([C@@H](O)CNC(C)(C)C)cc2cccnc12`
Output: < 50%

Input: Repeat with `Cc1nc(N)c(Cl)cc1[C@@H](O)CNC(CO)CO`
Output: 70 to 90%

Input: Repeat with `CC(C)(C)NC[C@H](O)c1cccc2[nH]nc(C3CC3)c12`
Output: 70 to 90%

Input: Repeat with `O[C@@H](CNC1CC1)c1cccc2[nH]ncc12`
Output: > 90%

Input: Repeat with `CC1(CNC[C@H](O)c2ccc(F)c3[nH]ncc23)CC1`
Output: > 90%

Input: Repeat with `CC1(NC[C@H](O)c2cccc3[nH]ncc23)CCC1`
Output: > 90%

Input: Repeat with `CCC(C)(C)NC[C@H](O)c1ccc(F)c2[nH]ncc12`
Output: 70 to 90%

Input: Repeat with `Cc1cnc2ccc([C@@H](O)CNC(C)(C)C)cc2c1`
Output: < 50%

Input: Repeat with `CC(C)[C@@H](C)NC[C@H](O)c1cccc2[nH]ncc12`
Output: > 90%

Input: Repeat with `CC(C)(C)NC[C@H](O)c1cccc2[nH]c(=O)sc12`
Output: > 90%

Input: Repeat with `CCC(C)(C)NC[C@H](O)c1cncc2[nH]ncc12`
Output: 70 to 90%

Input: Repeat with `Cn1ccc(CNC[C@H](O)c2cccc3[nH]ncc23)n1`
Output: > 90%

Input: Repeat with `Cc1ncccc1[C@@H](O)CNC1CC(C)(C)C1`
Output: 50 to 70%

Input: Repeat with `CC(C)[C@@H](C)NC[C@H](O)c1cc(F)cc2[nH]ncc12`
Output: > 90%

Input: Repeat with `Cc1ncccc1[C@@H](O)CNC1CC(F)(F)C1`
Output: 50 to 70%

Input: Repeat with `CCC(C)(C)NC[C@H](O)c1cccc2[nH]nc(C)c12`
Output: 70 to 90%

Input: Repeat with `Cn1ccc(CNC[C@H](O)c2ccc(F)c3[nH]ncc23)n1`
Output: 70 to 90%

Input: Repeat with `CC[C@H](C)NC[C@H](O)c1cc(F)cc2[nH]ncc12`
Output: 70 to 90%

Input: Repeat with `O[C@@H](CNC1CCC1)c1cncc2[nH]ncc12`
Output: > 90%

* * *

# study.system: B1-AR (Homo sapiens)
# Construct: expressed in transfected cells; host or cells: CHO-K1
# test.protocol: cAMP Gs dynamic HTRF assay, cells expressing beta-adrenergic receptor (CHO-K1), B1-AR
# Assay type: cell-based
# experimental.context: relative to full agonist isoproterenol, read-out: Emax (% iso) (%) [B1-AR]
I'd be grateful if you could share measured Emax for these entries.

Input: Please look up its Emax: CCC(CC)NC[C@H](O)c1cccc2[nH]nc(F)c12 [I-42]
Output: > 90%

Input: Repeat with CCC(C)(C)NC[C@H](O)c1cccc2[nH]cc(F)c12 [I-46]
Output: > 90%

Input: Repeat with O[C@@H](CNCC1CC1)c1ccc(F)c2[nH]ncc12 [I-75]
Output: 70 to 90%

Input: Repeat with CC(C)CNC[C@H](O)c1cc(C#N)cc2[nH]ncc12 [I-160]
Output: 70 to 90%

Input: Repeat with CC1(NC[C@H](O)c2cccc3[nH]cc(F)c23)CCC1 [I-110]
Output: > 90%

Input: Repeat with CC(C)(C)CNC[C@H](O)c1cc(C#N)cc2[nH]ncc12 [I-69]
Output: 50 to 70%

Input: Repeat with Cc1ncccc1[C@@H](O)CNC1(C)CCC1 [I-177]
Output: 70 to 90%

Input: Repeat with CC(C)(NC[C@H](O)c1cccc2[nH]nc(F)c12)C1CC1 [I-20]
Output: > 90%

Input: Repeat with CC(C)(C)CNC[C@H](O)c1cccc2[nH]ncc12 [I-88]
Output: 70 to 90%

Input: Repeat with CC1(NC[C@H](O)c2cc(C#N)cc3[nH]ncc23)CCC1 [I-157]
Output: 70 to 90%

Input: Repeat with CC(C)(C)CNC[C@H](O)c1cc(F)cc2[nH]ncc12 [I-92]
Output: 70 to 90%
